target: MASP-2 CCP2-SP (Homo sapiens (Human), UniProt O00187); assay: MASP-2 co-crystallization, X-ray crystallography and structure analysis (H-bonds, van der Waals contacts); conditions: Table A6-1 pharmacophore angle; Methyl-amino-pyridine compounds
Sequence (O00187 445-686): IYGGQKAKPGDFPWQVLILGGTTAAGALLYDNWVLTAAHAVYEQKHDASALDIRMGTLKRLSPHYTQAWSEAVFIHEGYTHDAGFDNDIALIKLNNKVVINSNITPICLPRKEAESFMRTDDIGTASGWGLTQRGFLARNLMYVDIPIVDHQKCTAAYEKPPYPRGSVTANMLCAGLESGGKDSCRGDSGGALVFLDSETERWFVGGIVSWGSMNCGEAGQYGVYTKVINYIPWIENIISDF
Sequence (O00187 364-432 partner): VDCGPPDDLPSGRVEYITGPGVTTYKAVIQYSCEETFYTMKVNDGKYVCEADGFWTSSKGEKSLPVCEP
Structures can show the parent of a compound that is named as a salt.
Please go through the items and note down their a(N1, CA1, O1) b).
One number for each entry.

Record a(N1, CA1, O1) b) per entry; entries follow.
1. Cc1nc(N)ccc1CNC(=O)[C@H](C)NC(=O)[C@H]1C[C@H](Cc2cccc(Cl)c2)CN1.Cl.Cl [1328_3]
2. Cc1nc(N)ccc1CNC(=O)C(C)NC(=O)C1CC(c2cccc3ccccc23)CCN1.Cl.Cl (stereo not drawn) [1297_3]
3. Cc1nc(N)ccc1CNC(=O)[C@H](C)NC(=O)[C@H]1C[C@H](Cc2ccccc2Br)CN1.O=C(O)C(F)(F)F.O=C(O)C(F)(F)F [1372_A]
4. Cc1nc(N)ccc1CNC(=O)[C@H](C)NC(=O)[C@H]1C[C@H](Cc2cc(-c3ccccc3)cs2)CN1 [compound 1399, Dihydrochloride]

1: 173.57; 2: 174.78; 3: 174.16; 4: 173.87

Record a(N1, CA1, O1) b) per entry; entries follow.
1. CC(=O)Nc1ccc(CCN[C@H](CCc2ccccc2)C(=O)N[C@@H](C)C(=O)NCc2ccc(N)nc2C)cc1 [compound 1368, Dihydrochloride]
2. Cc1nc(N)ccc1CNC(=O)[C@H](C)NC(=O)[C@H]1C[C@H](Cc2cc(Cl)cc(Cl)c2)CN1 [compound 1435, Dihydrochloride]

173.57
173.74

Source of measurements: patent US12195427B2
